Kindly supply the reported Ki values for the records listed here.
# system.tested: T1, wild-type human integrin αvβ5 (octyl β-D-glucopyranoside preparation) (human, UniProt P06756 31-1048; P18084 24-799)
# T1 construct: From Immunological Sciences
# test.summary: competitive binding assay on αvβ5-coated plates, isoDGR/STV-HRP probe
Where no end group is shown, it is not given here.
Give bare numbers, in nM.

FETLRGDERILSILRHQNLLKELQD (Synthetic peptide bought from Biomatik; no terminal modification is stated for it; also called compound 1) [peptide 1 (CgA-derived peptide, residues 39-63), synthetic] = 3600

# ---- query binder ----
Inquiry: // query Ki value for entry FETLRGDERILSILR-NH2 (Made by Fmoc-SPPS on a Rink-amide resin; also called compound 3) [peptide 3]
Reply text: 2040
